In this section we review reported GFP response vs DMSO values for a set of compounds.
- procedure details: yeast MEP2-GFP fusion level changes, TOR pathway – flow cytometry, third cherry pick, S. cerevisiae, confirmation (AID 504321);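 further: median per-cell GFP fluorescence by flow cytometry across all yeast cells; ratio of sample to DMSO median GFP so 100% equals the DMSO level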
- test settings: S. cerevisiae MEP2-GFP strain, 3 h, at 10 µM, active compounds read high
Active and inactive are the calls of the source.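 How the source made its calls: active means GFP response vs DMSO above 150% with enough events counted; inconclusive means fewer than 70 events counted for a yeast strain; inactive means the rest.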
outcome measure: GFP response vs DMSO

{"columns": ["compound", "result"],
 "data": [
  ["COc1cccc(NC(=O)CC(C)=O)c1", "108% (inactive)"],
  ["FC(F)Oc1cccc2cccnc12", "110% (inactive)"],
  ["CCN(CC)C(=O)Oc1ccnc2cc(Cl)ccc12", "110% (inactive)"],
  ["COC1=C/C(=C/c2c(N)n3cc(C)sc3nc2=O)C=CC1=O", "131% (inactive)"],
  ["O=C(Nc1ccccc1)O/N=C1\\CCCCC1c1ccc([N+](=O)[O-])cc1[N+](=O)[O-] (stereo not given)", "105% (inactive)"],
  ["CCC(=O)Nn1cnc2c(c1=O)C1(CCCCC1)Cc1ccccc1-2", "110% (inactive)"],
  ["CN(C)CCCNc1cc(O)c2ncccc2c1", "118% (inactive)"],
  ["COc1ccccc1Nc1nc(NCCC(C)C)nc(N)c1[N+](=O)[O-]", "105% (inactive)"],
  ["COc1ccccc1OCc1cc(C(=O)N2CCN(C)C(c3ccccc3)C2)no1 (stereo not given)", "110% (inactive)"],
  ["CC(=O)NCCOc1cccc2cccnc12", "110% (inactive)"],
  ["COc1cc(OC)cc(C(=O)Nc2ccc(-c3nc4ccccc4o3)cc2)c1", "110% (inactive)"],
  ["Cc1cccc(Nc2cc(=O)[nH]c(=O)[nH]2)c1", "108% (inactive)"],
  ["COc1ccc(OC)c2c(=O)cc(C(=O)O)[nH]c12", "105% (inactive)"],
  ["Cc1ccc2c(C)ccc(O)c2n1", "114% (inactive)"],
  ["C=CCNc1ncnc2ccccc12", "114% (inactive)"]
]}
